- assay info: nuclear p53 accumulation, HPV+ cells – imaging, p53-positive nuclei imaging, 24 h, 48 h (AID 1508601)
- details: 24/48 h, measured here: cell number at 24 h, concentration not given here
Out of some 5,700 compounds screened, about 85 (1%) were called active. Shown is part of a subset that was picked to be rich in actives.
So I've got a bunch of molecules here, and I need their nuclei count, normalised values.
Numbers only, in %.

The following molecules have reported results that may help.
{"record smiles": "CCCCC[C@H](O)/C=C/[C@@H]1[C@H](CCCCCCC(=O)O)[C@H](O)C[C@H]1O", "nuclei count, normalised [%]": 103}
{"record smiles": "CC(=O)Nc1ccc(S(=O)(=O)Nc2ccc([N+](=O)[O-])cc2)cc1", "nuclei count, normalised [%]": 87.2}

Next up:
Q: Which nuclei count, normalised reading was recorded for the molecule CN(C)c1ccc(C(=O)NCCCCCC(=O)NO)cc1 ?
A: 110

----------
- assay info: nuclear p53 accumulation, HPV+ cells – imaging, p53-positive nuclei imaging, 24 h, 48 h (AID 1508601)
- details: 24/48 h, measured here: cell number at 24 h, Library stock concentration: 1.111 mM
Screen size: about 5,700 compounds; about 85 (1%) were called active. For the sample, actives were picked, then their nearest neighbours and some compounds at random.
Mark y only when nuclei count, normalised stays strictly below 60%. Values equal to the cut-off are n.

{"compound": "Nc1ccn(C2C=C(CO)C(O)C2O)c(=O)n1 (stereo not given)", "label value": "n"}
{"compound": "CC(=O)OC1C(=O)[C@]2(C)C(O)CC3OC[C@@]3(OC(C)=O)C2C(OC(=O)c2ccccc2)[C@]2(O)CC(OC(=O)C(O)C(NC(=O)c3ccccc3)c3ccccc3)C(C)=C1C2(C)C (stereo not given in full)", "label value": "y"}
{"compound": "COC(=O)C#Cc1ccc([N+](=O)[O-])cc1", "label value": "n"}

As a next step, examine the compound that follows.
Q: Given COc1ccc(N2C(=O)C(=Cc3ccc([N+](=O)[O-])s3)SC2=S)cc1 , is recorded nuclei count, normalised strictly lower than 60%?
A: n

----------
So I've got a bunch of compounds here, and I need their nuclei count, normalised values.
- assay info: nuclear p53 accumulation, HPV+ cells – imaging, p53-positive nuclei imaging, 24 h, 48 h (AID 1508601)
- details: 24/48 h, measured here: cell number at 48 h, Library stock concentration: 80 uM
In all, about 5,700 compounds went through this assay and about 85 (1%) were called active. The entries come from a sample that favours actives as a whole.
Give bare numbers, in %.

The following compounds have reported results that may help.
{"compound": "CC(CCC(=O)O)C1CC[C@H]2[C@@H]3C(O)C[C@@H]4CC(O)CC[C@]4(C)[C@@H]3CC[C@]12C (some centres undefined)", "assay value": 101}
{"compound": "CC(C)C(N)C(=O)NC(Cc1ccccc1)C(=O)O (centres undefined)", "assay value": 107}
{"compound": "COc1ccc(-c2ccc3ncc4c(c3c2)n(-c2ccc(N3CCNCC3)c(C(F)(F)F)c2)c(=O)n4C)cn1", "assay value": 70.7}

Next up:
Q: Which nuclei count, normalised reading was recorded for the compound Fc1cc(-c2ccnc(Nc3ccc(-n4cnc(N5CCOCC5)n4)cc3)n2)cc(N2CCOCC2)c1 ?
A: 73

----------
- assayed target: Cellular tumor antigen p53 (Homo sapiens) (UniProt P04637)
- Sequence (P04637 whole entry, looked up): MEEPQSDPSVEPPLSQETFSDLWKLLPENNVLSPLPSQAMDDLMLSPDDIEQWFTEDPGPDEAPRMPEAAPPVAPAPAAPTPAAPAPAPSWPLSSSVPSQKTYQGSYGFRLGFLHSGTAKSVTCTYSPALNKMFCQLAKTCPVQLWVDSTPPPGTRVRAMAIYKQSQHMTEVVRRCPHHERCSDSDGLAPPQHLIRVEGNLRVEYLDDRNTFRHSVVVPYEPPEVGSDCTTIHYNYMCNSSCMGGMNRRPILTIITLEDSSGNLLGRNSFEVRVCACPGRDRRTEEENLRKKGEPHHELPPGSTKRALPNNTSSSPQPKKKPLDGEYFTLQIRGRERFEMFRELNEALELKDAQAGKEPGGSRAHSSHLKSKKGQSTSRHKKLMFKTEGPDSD
- assay info: nuclear p53 accumulation, HPV+ cells – imaging, p53-positive nuclei imaging, 24 h, 48 h (AID 1508601)
- details: 24/48 h, stronger effect = higher value, concentration not given here
Hit rate of the full screen: of about 5,700 compounds, about 85 (1%) were called active. Shown is part of a subset that was picked to be rich in actives.
So I've got a bunch of compounds here, and I need their p53-positive nuclei, normalised values.
Numbers only, in %.

The following compounds have reported results that may help.
{"record smiles": "CCCCC[C@H](O)/C=C/[C@H]1[C@H](O)CC(=O)[C@@H]1C/C=C\\CCCC(=O)OC", "assayed target": "Cellular tumor antigen p53 (Homo sapiens) (UniProt P04637)", "assay value": -0.0657}
{"record smiles": "CCCCCCCCNC(=O)Cc1c(C)n(C(=O)c2ccc(Cl)cc2)c2ccc(OC)cc12", "assayed target": "Cellular tumor antigen p53 (Homo sapiens) (UniProt P04637)", "assay value": 0.0988}

Next up:
Q: Which p53-positive nuclei, normalised reading was recorded for the compound O=C1CCCc2occ(C(=O)N3CCc4[nH]nc(C5CCC5)c4C3)c21 ?
A: -0.00738

----------
- assay info: nuclear p53 accumulation, HPV+ cells – imaging, p53-positive nuclei imaging, 24 h, 48 h (AID 1508601)
- details: 24/48 h, measured here: cell number at 48 h, Library stock concentration: 10 mM
Screen size: about 5,700 compounds; about 85 (1%) were called active. The list comes from a sample in which actives are over-represented; it also holds close analogues and randomly drawn compounds.
assay metric: nuclei count, normalised (%)
One number for each entry, in %.

// each compound listed below needs its nuclei count, normalised
1. CN(CCC(Oc1ccc(-c2ccccc2)cc1)c1ccc(F)cc1)CC(=O)O (stereo not given)
2. O=Nc1c(O)[nH]c2c(Cl)c(Cl)ccc12

A:
1: 110; 2: 33.7

// each compound listed below needs its nuclei count, normalised
1. O=C(O)CCCC=CCC1C(O)CC(O)C1C=CC(O)COc1cccc(Cl)c1 (stereo not given)
2. COc1cc(=C2C=c3ccccc3=N2)[nH]c1=Cc1[nH]c(C)cc1C
3. Cc1ccc(NC(=O)c2ccc(CN3CCN(C)CC3)cc2)cc1Nc1nccc(-c2cccnc2)n1

A:
62.3
52.6
87.9

----------
So I've got a bunch of molecules here, and I need their p53-positive nuclei, normalised values.
- assayed target: Cellular tumor antigen p53 (Homo sapiens)
- assay info: nuclear p53 accumulation, HPV+ cells – imaging, p53-positive nuclei imaging, 24 h, 48 h (AID 1508601)
- details: 24/48 h, measured here: p53 positive nuclei at 24 h, Library stock concentration: 4.6 uM, stronger effect = higher value
In all, about 5,700 compounds went through this assay and about 85 (1%) were called active. The sample as a whole holds a higher share of actives than the screen did.
Answers are plain numbers, in %.

{"molecule": "O=C(O)c1ccccc1SC1=NS(=O)(=O)c2ccccc21", "unit abbreviation": "%", "assay value": -0.0339}
{"molecule": "CCCCCCCCCCCCCC=CC(O)C(CO)N(C)C (stereo unspecified)", "unit abbreviation": "%", "assay value": -0.148}
{"molecule": "OCC1OC(n2cnc3c2NC=NCC3O)CC1O (stereo unspecified)", "unit abbreviation": "%", "assay value": -0.0281}
{"molecule": "CC(=O)NC(CSC(=S)NSc1ccc(SNC(=S)SCC(NC(C)=O)C(=O)O)cc1)C(=O)O (stereo unspecified)", "unit abbreviation": "%", "assay value": -0.113}
{"molecule": "N#CSc1cc(SC#N)c(N)nc1N", "unit abbreviation": "%", "assay value": 0.0386}

Next up:
Q: Any idea what p53-positive nuclei, normalised came out for OC(c1cc(C(F)(F)F)nc2c(C(F)(F)F)cccc12)[C@H]1CCCCN1 (stereo partly specified) on Cellular tumor antigen p53 (Homo sapiens)?
A: -0.0294

----------
- assayed target: Cellular tumor antigen p53 (Homo sapiens) (UniProt P04637)
- assay info: nuclear p53 accumulation, HPV+ cells – imaging, p53-positive nuclei imaging, 24 h, 48 h (AID 1508601)
- details: 24/48 h, stronger effect = higher value, concentration not given here
In all, about 5,700 compounds went through this assay and about 85 (1%) were called active. Many of the other results were omitted from the sample, so actives are more common in it than they were.
assay metric: p53-positive nuclei, normalised

{"molecule": "O=C(N[C@@H](CO)[C@H](O)c1ccc([N+](=O)[O-])cc1)C(Cl)Cl", "p53-positive nuclei, normalised": "-0.175% (inactive)"}
{"molecule": "c1nc(-c2ccc3c(c2)OCCO3)c2sccc2n1", "p53-positive nuclei, normalised": "68.7% (active)"}
{"molecule": "CN(C)c1ccc(C(=O)NCCCCCC(=O)NO)cc1", "p53-positive nuclei, normalised": "0.149% (inactive)"}

// each molecule listed below needs its p53-positive nuclei, normalised
1. O=C(c1ccccc1-c1nn[nH]n1)N1CCc2[nH]cnc2C1c1ccccn1 (centres undefined)
2. C=C1C[C@H](O)[C@H](C/C=C\CCCC(=O)O)[C@H]1/C=C/C(=O)CCCCC

A:
["-0.169% (inactive)", "0.125% (inactive)"]

// each molecule listed below needs its p53-positive nuclei, normalised
1. O=C(CCn1cnnn1)N1CCc2[nH]nc(-c3ccc4c(c3)OCO4)c2C1
2. COc1nccnc1-c1ccc2c(c1)OCO2
3. CN(CC1COc2ccccc2O1)C(=O)Nc1nncs1 (centres undefined)
4. CC/C=C\C/C=C\C/C=C\C/C=C\C/C=C\CCCCCC(=O)O
5. O=C(c1cn2cccnc2n1)N1CCCC(Cn2cc(C3CCCC3)nn2)C1 (centres undefined)
6. CCCCC/C=C/C/C=C/CCCCCCCC(=O)O
7. COc1cccc2ccc(-c3ccc(C(=O)N(C)C)cc3)nc12

A:
["0.266% (inactive)", "-0.145% (inactive)", "-0.215% (inactive)", "0.209% (inactive)", "-0.0576% (inactive)", "-0.00219% (inactive)", "0.00257% (inactive)"]

// each molecule listed below needs its p53-positive nuclei, normalised
1. Cn1ncc(NC(=O)CCc2cn3ccccc3n2)n1
2. CC(=O)Nc1ccc(S(=O)(=O)Nc2ccc([N+](=O)[O-])cc2)cc1
3. CCCCC/C=C\C/C=C\C/C=C\C/C=C\CCCC(=O)C(F)(F)F
4. COc1ccc(CN2CCN(c3nccc(-c4c(C)nn(C)c4C)n3)CC2=O)cc1

A:
-0.189% (inactive)
-0.0672% (inactive)
-0.148% (inactive)
-0.125% (inactive)
